Ref: PubChem BioAssay AID2060489

test system: 922993-354-T-J3-PDC complex spheroids, viability; test: Anticancer human tumor 922993-354-T-J3-PDC patient-derived endometrial carcinoma cell line growth inhibition [GQUAD]; conditions: second compound 10 µM; first compound 1 µM; stronger effect = lower value;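 also: spheroids exposed to compounds for seven days; 100% = DMSO vehicle control viability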
reported.endpoint: viability, T/C (%)

>>> obs_value("CC(C)n1c(=O)n(C)c2cnc3cc(F)c(-c4ccc(OCCCN5CCCCC5)nc4)cc3c21 + Cc1[nH]c2ccc(F)cc2c1-c1nc2c3cccnc3c3ncccc3c2[nH]1")
97.4
>>> obs_value("COc1ccc([C@@H](O)c2cc(-c3ncnc4cc(N5CCOCC5)ccc34)c(F)cc2Cl)nn1 + Cc1cnc(CNC(=O)c2c(=O)c3ccc(N4CCCN(C)CC4)nc3n3c2sc2ccccc23)cn1")
38.6
>>> obs_value("COc1ccc([C@@H](O)c2cc(-c3ncnc4cc(N5CCOCC5)ccc34)c(F)cc2Cl)nn1 + CN(C)c1ccc(Nc2c3ccc(NC(=O)CCN4CCCC4)cc3nc3cc(NC(=O)CCN4CCCC4)ccc23)cc1")
88.6
>>> obs_value("Cc1cccc(N(C)C(=O)C2C(O)CCN2c2nc(C)cc(C(F)(F)F)c2C#N)c1 (stereo not given) + CN(C)c1ccc(Nc2c3ccc(NC(=O)CCN4CCCC4)cc3nc3cc(NC(=O)CCN4CCCC4)ccc23)cc1")
106
>>> obs_value("COc1cccc2c1C(=O)c1c(O)c3c(c(O)c1C2=O)CC(O)(C(=O)CO)CC3OC1CC(N)C(O)C(C)O1 (stereo not given) + CN(C)c1ccc(Nc2c3ccc(NC(=O)CCN4CCCC4)cc3nc3cc(NC(=O)CCN4CCCC4)ccc23)cc1")
97.6
>>> obs_value("CC1COCCN1c1cc(C2(S(C)(=N)=O)CC2)nc(-c2ccnc3[nH]ccc23)n1 (stereo not given) + Cc1cnc(CNC(=O)c2c(=O)c3ccc(N4CCCN(C)CC4)nc3n3c2sc2ccccc23)cn1")
50.6
>>> obs_value("COc1cc(C2c3cc4c(cc3C(OC3OC5COC(C)OC5C(O)C3O)C3COC(=O)C23)OCO4)cc(OC)c1O (stereo not given) + Cc1[nH]c2ccc(F)cc2c1-c1nc2c3cccnc3c3ncccc3c2[nH]1")
82.8
>>> obs_value("O=c1[nH]cc(F)c(=O)[nH]1 + CN(C)c1ccc(Nc2c3ccc(NC(=O)CCN4CCCC4)cc3nc3cc(NC(=O)CCN4CCCC4)ccc23)cc1")
117
>>> obs_value("CC1COCCN1c1cc(-c2ccnn2C)c2ccnc(-c3ccn[nH]3)c2n1 (stereo not given) + Cc1cnc(CNC(=O)c2c(=O)c3ccc(N4CCCN(C)CC4)nc3n3c2sc2ccccc23)cn1")
22.2
>>> obs_value("CC(=O)O[C@H]1C(=O)[C@@]2(C)[C@H]([C@H](OC(=O)c3ccccc3)[C@]3(O)C[C@H](OC(=O)[C@H](O)[C@@H](NC(=O)c4ccccc4)c4ccccc4)C(C)=C1C3(C)C)[C@]1(OC(C)=O)CO[C@@H]1C[C@@H]2O + CN(C)c1ccc(Nc2c3ccc(NC(=O)CCN4CCCC4)cc3nc3cc(NC(=O)CCN4CCCC4)ccc23)cc1")
130
>>> obs_value("COc1ncnc(C2CC2)c1-c1ncc2cnn(Cc3ccc(-c4nc(C(F)(F)F)cn4C(C)C)cc3)c2n1 + Cc1cnc(CNC(=O)c2c(=O)c3ccc(N4CCCN(C)CC4)nc3n3c2sc2ccccc23)cn1")
49
>>> obs_value("C=CCn1c(=O)c2cnc(Nc3ccc(N4CCN(C)CC4)cc3)nc2n1-c1cccc(C(C)(C)O)n1 + Cc1cnc(CNC(=O)c2c(=O)c3ccc(N4CCCN(C)CC4)nc3n3c2sc2ccccc23)cn1")
40.8
>>> obs_value("CC1COCCN1c1cc(C2(O)CC3CCC(C2)O3)c2cnn(-c3ccn[nH]3)c2n1 (stereo not given) + Cc1cnc(CNC(=O)c2c(=O)c3ccc(N4CCCN(C)CC4)nc3n3c2sc2ccccc23)cn1")
14.6
>>> obs_value("CC1COCCN1c1cc(C2(S(C)(=N)=O)CC2)nc(-c2ccnc3[nH]ccc23)n1 (stereo not given) + CN(C)c1ccc(Nc2c3ccc(NC(=O)CCN4CCCC4)cc3nc3cc(NC(=O)CCN4CCCC4)ccc23)cc1")
114
>>> obs_value("C#Cc1c(F)ccc2cc(O)cc(-c3ncc4c(N5CC6CCC(C5)N6)nc(OCC56CCCN5CC(F)C6)nc4c3F)c12 (stereo not given) + Cc1[nH]c2ccc(F)cc2c1-c1nc2c3cccnc3c3ncccc3c2[nH]1")
110
>>> obs_value("CC(=O)O[C@H]1C(=O)[C@@]2(C)[C@H]([C@H](OC(=O)c3ccccc3)[C@]3(O)C[C@H](OC(=O)[C@H](O)[C@@H](NC(=O)c4ccccc4)c4ccccc4)C(C)=C1C3(C)C)[C@]1(OC(C)=O)CO[C@@H]1C[C@@H]2O + Cc1[nH]c2ccc(F)cc2c1-c1nc2c3cccnc3c3ncccc3c2[nH]1")
105
>>> obs_value("CCCS(=O)(=O)Nc1ccc(F)c(C(=O)c2c[nH]c3ncc(-c4ccc(Cl)cc4)cc23)c1F + Cc1[nH]c2ccc(F)cc2c1-c1nc2c3cccnc3c3ncccc3c2[nH]1")
81.4
>>> obs_value("CC(C)n1c(=O)n(C)c2cnc3cc(F)c(-c4ccc(OCCCN5CCCCC5)nc4)cc3c21 + CN(C)c1ccc(Nc2c3ccc(NC(=O)CCN4CCCC4)cc3nc3cc(NC(=O)CCN4CCCC4)ccc23)cc1")
67
>>> obs_value("CC1COCCN1c1cc(-c2ccnn2C)c2ccnc(-c3ccn[nH]3)c2n1 (stereo not given) + Cc1[nH]c2ccc(F)cc2c1-c1nc2c3cccnc3c3ncccc3c2[nH]1")
24.8
>>> obs_value("CC(C)(O)C1CCC(Nc2ccc3ncc(-c4cccc(C(F)(F)F)c4)n3n2)CC1 (stereo not given) + CN(C)c1ccc(Nc2c3ccc(NC(=O)CCN4CCCC4)cc3nc3cc(NC(=O)CCN4CCCC4)ccc23)cc1")
88.8
